- Test system: Moraxella catarrhalis
- testProtocol: Minimum inhibitory concentration against Moraxella catarrhalis MC2
- Format: functional
Measured MIC, listed per entry.
measureName: MIC (µg/mL)

                                  structure           testedsystem  measurename  recordedresult
0  C[C@H]1COc2c(N3CC[C@@H](C(C)(C)N)C3)ccc3c(=O)c(C(=O)O)cn1c23  Moraxella catarrhalis          MIC           0.063
1  C[C@H]1COc2c(N3CCC[C@H](N)C3)ccc3c(=O)c(C(=O)O)cn1c23  Moraxella catarrhalis          MIC               2
2  C[C@H]1COc2c(N3CCN(C)CC3)ccc3c(=O)c(C(=O)O)cn1c23  Moraxella catarrhalis          MIC               4
3  C[C@H]1COc2c(N3CCN(C)CC3)c(F)cc3c(=O)c(C(=O)O)cn1c23.C[C@H]1COc2c(N3CCN(C)CC3)c(F)cc3c(=O)c(C(=O)O)cn1c23.O  Moraxella catarrhalis          MIC            0.03
4  C[C@H](N)[C@@H]1CCN(c2ccc3c(=O)c(C(=O)O)cn4c3c2OC[C@@H]4C)C1  Moraxella catarrhalis          MIC           0.125
